Values were extracted from paper PMC10250227.

# SYSTEM: T1, NEQ395 DNA primase (monomeric PriS-PriL) (Nanoarchaeum equitans, UniProt Q74N22 1-393)
# T1 sequence: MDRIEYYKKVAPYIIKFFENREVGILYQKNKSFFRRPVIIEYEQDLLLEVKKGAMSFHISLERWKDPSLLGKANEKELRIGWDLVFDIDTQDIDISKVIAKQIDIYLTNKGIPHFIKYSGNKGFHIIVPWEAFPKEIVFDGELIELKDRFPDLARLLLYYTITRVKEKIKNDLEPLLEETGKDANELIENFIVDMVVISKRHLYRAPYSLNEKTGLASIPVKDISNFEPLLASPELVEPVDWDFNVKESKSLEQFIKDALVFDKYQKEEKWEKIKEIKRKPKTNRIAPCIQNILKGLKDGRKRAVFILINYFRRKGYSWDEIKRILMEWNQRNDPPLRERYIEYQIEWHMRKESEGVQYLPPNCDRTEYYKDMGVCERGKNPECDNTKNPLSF
# METHOD SUMMARY: fluorescence anisotropy
ATTRIBUTE MEASURED: pKd
Formally, pKd is defined as -log10 of the concentration c, with c in mol/L.

Using the record for CTATACTCA (ssDNA) [t9] , report its pKd. 6.24
